- experimental.context: bacteroides fragilis, 12 h, 2 µM
- Description: The drug is tested on Bacteroides fragilis strain: DS-208 for biotransformation. The drug concentrations were measured before and after a 12-h incubation by liquid-chromatography-coupled mass spectrometry (LC–MS)
test.readout: Bacterial Biotransformation

>  <molecule>
CN(C/C=C/C#CC(C)(C)C)Cc1cccc2ccccc12 [TERBINAFINE]

>  <test.readout>
Bacterial Biotransformation

>  <result>
Compound NOT metabolized

$$$$
>  <molecule>
CN1CCC(OC(c2ccccc2)c2ccccc2)CC1

>  <test.readout>
Bacterial Biotransformation

>  <result>
Compound NOT metabolized

$$$$
>  <molecule>
COc1ccc(/C=C/C(=O)Nc2ccccc2C(=O)O)cc1OC

>  <test.readout>
Bacterial Biotransformation

>  <result>
Compound NOT metabolized

$$$$
>  <molecule>
COC(=O)[C@H]1[C@H]2C[C@@H]3c4[nH]c5cc(OC)ccc5c4CCN3C[C@H]2C[C@@H](OC(=O)c2cc(OC)c(OC)c(OC)c2)[C@@H]1OC [RESERPINE]

>  <test.readout>
Bacterial Biotransformation

>  <result>
Compound NOT metabolized

$$$$

If you can, please state the reported Bacterial Biotransformation value of CCc1nc(N)nc(N)c1-c1ccc(Cl)cc1 [PYRIMETHAMINE] .
Compound NOT metabolized

And the next one, COc1cc2nc(N3CCN(C(=O)C4CCCO4)CC3)nc(N)c2cc1OC (centres undefined) [TERAZOSIN] ?
Compound NOT metabolized

And the next one, CCN(CC)CCCC(C)Nc1c2ccc(Cl)cc2nc2ccc(OC)cc12 (centres undefined) [QUINACRINE] ?
Compound NOT metabolized

And the next one, CN(C)CCC=C1c2ccccc2COc2ccccc21 [DOXEPIN] ?
Compound NOT metabolized
